molecular target: CCR1 (Homo sapiens, UniProt P32246); assay: Membrane-based radioligand binding assay with [3H]-CCR2-RA-[R], U2OS membranes; conditions: [3H]CCR2-RA-[R] 6 nM, 25 °C, read-out: Ki, CCR1 (radioligand)
pKi: −log10 of the molar value.

{"MOLECULE": "O=C(C1=C(O)C(=O)N(CCc2ccc(O)cc2)C1c1ccc(F)cc1)c1ccccc1 (racemic)", "pKi": 6.93}
{"MOLECULE": "CC(=O)C1=C(O)C(=O)N(c2ccc(Br)cc2F)C1C1CCCCC1 (centres unmarked) [compound 5, reference compound]", "pKi": 7.74}

====

Biological target: CCR2 (Homo sapiens, UniProt P41597)
Sequence (P41597 1-360 isoform P41597-2): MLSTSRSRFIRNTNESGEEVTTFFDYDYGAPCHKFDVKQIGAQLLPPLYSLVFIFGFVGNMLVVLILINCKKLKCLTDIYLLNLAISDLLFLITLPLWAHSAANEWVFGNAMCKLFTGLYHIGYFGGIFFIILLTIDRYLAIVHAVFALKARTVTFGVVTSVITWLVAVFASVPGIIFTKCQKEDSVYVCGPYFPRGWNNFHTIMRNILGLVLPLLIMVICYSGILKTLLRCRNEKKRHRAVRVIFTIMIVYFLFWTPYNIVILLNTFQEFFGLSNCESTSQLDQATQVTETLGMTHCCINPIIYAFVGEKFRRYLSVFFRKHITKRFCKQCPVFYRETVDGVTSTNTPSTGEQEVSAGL
Experiment: NanoBRET competition binding assay for CCR2 based on 7, as previously reported
Settings: NanoBRET competition, tracer 7

{"MOLECULE": "CC(=O)C1=C(O)C(=O)N(c2ccc(Br)cc2F)C1C1CCCCC1 (centres unmarked) [compound 5, reference compound]", "DISPLAY_UNIT": "µM", "Ki": 0.0179}
{"MOLECULE": "O=C(C1=C(O)C(=O)N(c2ccc(Br)cc2F)C1c1ccc(F)cc1)c1ccccc1 (centres unmarked)", "DISPLAY_UNIT": "µM", "Ki": 7.83}

====

molecular target: human chemokine receptor CCR2 (Homo sapiens, UniProt P41597); construct: expressed in transfected cells; host or cells: HEK293T, transient; assay: Cellular NanoBiT β-arrestin recruitment assay; type: cell-based; conditions: in the presence of CCL2 (10 nM), HEK293T cells; read-out: IC50 (CCR2), β-arrestin recruitment
pIC50: −log10 of the molar value.

{"MOLECULE": "O=C(C1=C(O)C(=O)N(CCc2ccc(O)cc2)C1c1ccc(F)cc1)c1ccccc1 (racemic)", "pIC50": 3.73}

====

biological target: CCR1 (Homo sapiens, UniProt P32246); assay: Membrane-based NanoBRET saturation binding assay, CCR1_Nluc membranes from HEK293T cells; set-up: Promega pNLF1-C (Nluc) #CCR010TN00; host or cells: HEK293T, transient (PEI); conditions: saturation binding of fluorescent ligand, read-out: KD (equilibrium, KD(eq.))
TEST_READOUT: Kd (µM)

{"MOLECULE": "CN(C)c1ccc2c(-c3cc(C(=O)NCc4cn(CCCC(=O)C5=C(O)C(=O)N(c6ccc(Br)cc6F)C5C5CCCCC5)nn4)ccc3C(=O)[O-])c3ccc(=[N+](C)C)cc-3oc2c1 (stereo not shown) [compound 9]", "TARGET": "CCR1 (Homo sapiens, UniProt P32246)", "TEST_READOUT": "Kd", "DISPLAY_UNIT": "µM", "NUMERIC_READOUT": 14.9}
{"MOLECULE": "CN(C)c1ccc2c(-c3cc(C(=O)NCCOCCOCc4cn(CCCC(=O)C5=C(O)C(=O)N(c6ccc(Br)cc6F)C5C5CCCCC5)nn4)ccc3C(=O)[O-])c3ccc(=[N+](C)C)cc-3oc2c1 (stereo not shown) [compound 12]", "TARGET": "CCR1 (Homo sapiens, UniProt P32246)", "TEST_READOUT": "Kd", "DISPLAY_UNIT": "µM", "NUMERIC_READOUT": 1.9}
{"MOLECULE": "CN(C)c1ccc2c(-c3cc(C(=O)NCc4cn(CCCC(=O)C5=C(O)C(=O)N(c6ccc(Cl)cc6F)C5C5CCCCC5)nn4)ccc3C(=O)[O-])c3ccc(=[N+](C)C)cc-3oc2c1 (stereo not shown) [compound 8]", "TARGET": "CCR1 (Homo sapiens, UniProt P32246)", "TEST_READOUT": "Kd", "DISPLAY_UNIT": "µM", "NUMERIC_READOUT": 11.3}
{"MOLECULE": "CN(C)c1ccc2c(-c3cc(C(=O)NCCOCCOCc4cn(CCCC(=O)C5=C(O)C(=O)N(c6ccc(Cl)cc6F)C5C5CCCCC5)nn4)ccc3C(=O)[O-])c3ccc(=[N+](C)C)cc-3oc2c1 (stereo not shown) [compound 11]", "TARGET": "CCR1 (Homo sapiens, UniProt P32246)", "TEST_READOUT": "Kd", "DISPLAY_UNIT": "µM", "NUMERIC_READOUT": 3.17}

====

target: CCR1 (Homo sapiens); assay: Membrane-based NanoBRET competition kinetic assay with 12 (1000 nM) and CCR1_Nluc membranes; type: binding; set-up: Promega pNLF1-C (Nluc) #CCR010TN00; host or cells: HEK293T, transient (PEI); settings: kinetic competition, read-out: Ki(kin.)

{"COMPOUND": "CC(=O)C1=C(O)C(=O)N(c2ccc(Br)cc2F)C1C1CCCCC1 (stereo not shown) [compound 5, reference compound]", "Ki": "2.63 nM"}

====

Target: CCR1 (Homo sapiens, UniProt P32246)
Sequence (P32246 1-355): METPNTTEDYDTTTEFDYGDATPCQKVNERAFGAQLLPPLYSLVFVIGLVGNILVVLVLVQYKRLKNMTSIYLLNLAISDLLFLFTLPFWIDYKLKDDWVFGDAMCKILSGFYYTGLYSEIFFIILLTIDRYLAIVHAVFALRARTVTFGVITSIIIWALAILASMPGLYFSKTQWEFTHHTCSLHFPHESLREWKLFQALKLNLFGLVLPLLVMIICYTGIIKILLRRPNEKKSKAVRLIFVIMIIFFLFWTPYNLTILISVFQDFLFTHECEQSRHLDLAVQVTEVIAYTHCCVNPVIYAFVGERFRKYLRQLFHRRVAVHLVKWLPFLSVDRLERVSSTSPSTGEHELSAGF
Test: Membrane-based NanoBRET association and dissociation kinetic assays with 12
Type: binding
Design: Promega pNLF1-C (Nluc) #CCR010TN00; host or cells: HEK293T, transient (PEI)
Settings: CCR1_Nluc membranes, from kon and koff; read-out: kinetic KD value KD(kin.)
pKd: −log10 of the molar value.
TEST_READOUT: pKd

{"MOLECULE": "CN(C)c1ccc2c(-c3cc(C(=O)NCCOCCOCc4cn(CCCC(=O)C5=C(O)C(=O)N(c6ccc(Br)cc6F)C5C5CCCCC5)nn4)ccc3C(=O)[O-])c3ccc(=[N+](C)C)cc-3oc2c1 (stereo not shown)", "NUMERIC_READOUT": 6.50}

====

Biological target: UniProtKB P32246
Sequence (P32246 1-355): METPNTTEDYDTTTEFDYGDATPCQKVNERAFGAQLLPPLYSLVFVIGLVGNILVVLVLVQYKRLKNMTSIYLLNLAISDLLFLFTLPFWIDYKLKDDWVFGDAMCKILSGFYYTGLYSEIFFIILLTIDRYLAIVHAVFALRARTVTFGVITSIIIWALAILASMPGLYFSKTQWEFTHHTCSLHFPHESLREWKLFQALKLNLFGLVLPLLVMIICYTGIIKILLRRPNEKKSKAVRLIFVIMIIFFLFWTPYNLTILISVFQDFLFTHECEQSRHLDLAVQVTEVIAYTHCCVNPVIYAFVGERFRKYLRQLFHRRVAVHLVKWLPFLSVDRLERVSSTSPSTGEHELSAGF
Experiment: Membrane-based NanoBRET competition assay with 12 (2000 nM) and CCR1_Nluc membranes
Assay type: binding
Set-up: Promega pNLF1-C (Nluc) #CCR010TN00; host or cells: HEK293T, transient (PEI)
Conditions: compound at 20 μM, 12 (2000 nM)
Item-by-item account of % inh. of tracer binding, CCR1

{"COMPOUND": "O=C(C1=C(O)C(=O)N(CCc2ccc(O)cc2)C1c1ccc(F)cc1)C1CC1 (stereo not shown)", "% inh. of tracer binding, CCR1 (% @ 20 μM)": 25}
{"COMPOUND": "O=C(C1=C(O)C(=O)N(CCc2ccc(O)cc2)C1c1ccc(F)cc1)c1ccc(O)cc1 (stereo not shown)", "% inh. of tracer binding, CCR1 (% @ 20 μM)": 42}
{"COMPOUND": "O=C(C1=C(O)C(=O)N(c2ccc(O)cc2)C1c1ccc(F)cc1)c1ccccc1 (stereo not shown)", "% inh. of tracer binding, CCR1 (% @ 20 μM)": 32}
{"COMPOUND": "O=C(C1=C(O)C(=O)N(CCc2ccc(O)cc2)C1c1ccc(F)cc1)c1cccc(O)c1 (stereo not shown)", "% inh. of tracer binding, CCR1 (% @ 20 μM)": 38}
